System: SK-MEL-28 melanoma
Assay: NCI tumour cell line growth inhibition, 48 h
property: TGI

compound | TGI
CC1OC(OC2C(CO)OC(O[C@H]3CC[C@@]4(C)C(=CC[C@H]5[C@@H]6C[C@@H]7O[C@](O)(CC[C@H](C)COC8OC(CO)C(O)C(O)C8O)[C@@H](C)[C@@H]7[C@@]6(C)CC[C@@H]54)C3)C(OC3OC(C)C(O)C(O)C3O)C2O)C(O)C(O)C1O (stereo not given in full) | 12 µM
N=c1n(Cc2ccccc2)c(N)cc(=O)n1Cc1ccccc1 | 11.7 µM
CCOC1(OCC)N=C(N)C2(C#N)C3(C(=O)N(C(C)C)N=C3C)C12C#N (stereo not given) | > 100 µM
C/C(=N\Nc1nc2ccccc2s1)c1cnccn1 | > 100 µM
CC(C(=O)O)/C(=C\c1ccc2c(c1)OCO2)C(=O)O (stereo not given) | > 100 µM

Provide reported TGI for each item, in the same order as listed.
1. CNC(=O)C1CCCN1C(=O)C(Cc1cnc[nH]1)NC(=O)C1CCC(=O)N1 (stereo not given)
2. COc1ccc(-c2nc(N3CCOCC3)c3sc(CN(C)c4ncc(C(=O)NO)cn4)cc3n2)cn1
3. CCCCCCCCCCCCCCCCCC(=O)OCC(C[As](=O)(O)O)OC(=O)CCCCCCCCCCCCCCCCC (stereo not given)
4. Cn1c(=O)n2c(-c3ccccc3)c(-c3ccccc3)n2c1=O
5. CO/N=C(\C(=O)Nc1cncs1)c1csc(N)n1

1: > 100 µM; 2: 0.136 µM; 3: > 100 µM; 4: > 100 µM; 5: > 10 µM
